biological target: Cannabinoid receptor 1 (Rattus norvegicus, UniProt P20272)
Sequence (P20272 whole entry): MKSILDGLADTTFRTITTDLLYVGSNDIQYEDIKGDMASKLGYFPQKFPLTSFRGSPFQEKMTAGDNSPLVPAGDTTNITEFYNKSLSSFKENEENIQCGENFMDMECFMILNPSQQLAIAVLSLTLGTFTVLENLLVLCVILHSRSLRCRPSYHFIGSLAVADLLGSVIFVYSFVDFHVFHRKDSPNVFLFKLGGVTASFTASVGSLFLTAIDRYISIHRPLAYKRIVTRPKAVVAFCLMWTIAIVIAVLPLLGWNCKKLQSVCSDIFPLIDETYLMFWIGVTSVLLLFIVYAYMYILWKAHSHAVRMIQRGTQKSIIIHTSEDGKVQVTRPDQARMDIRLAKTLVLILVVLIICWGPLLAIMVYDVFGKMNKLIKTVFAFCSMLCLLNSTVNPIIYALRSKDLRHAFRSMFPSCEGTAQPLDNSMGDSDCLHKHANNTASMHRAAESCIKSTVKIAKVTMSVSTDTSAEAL
property-label: pKi
The read-out pKi is expressed as -log10 of concentration in moles per litre.

// solved cases for pKi follow
>  <mol>
CC1=CC[C@@H]2[C@@H](C1)c1c(O)cc([C@H]3C[C@@H]4CC[C@]3(C)C4(C)C)cc1OC2(C)C

>  <pKi>
8.05

$$$$
>  <mol>
CC1=CC[C@@H]2[C@@H](C1)c1c(ccc(C[C@H]3C[C@@H]4CC[C@]3(C)C4(C)C)c1O)OC2(C)C

>  <pKi>
7.49

$$$$
>  <mol>
CC1=CC[C@@H]2[C@@H](C1)c1c(O)cc([C@@H]3C[C@@H]4CC[C@]3(C)C4(C)C)cc1OC2(C)C

>  <pKi>
7.22

$$$$

Answer with the recorded pKi for the compound listed here: CC1=CC[C@@H]2[C@@H](C1)c1c(ccc(C[C@@H]3C[C@@H]4CC[C@]3(C)C4(C)C)c1O)OC2(C)C
7.31

====

target: Cannabinoid receptor 2 (Mus musculus, UniProt P47936)
Sequence (P47936 whole entry): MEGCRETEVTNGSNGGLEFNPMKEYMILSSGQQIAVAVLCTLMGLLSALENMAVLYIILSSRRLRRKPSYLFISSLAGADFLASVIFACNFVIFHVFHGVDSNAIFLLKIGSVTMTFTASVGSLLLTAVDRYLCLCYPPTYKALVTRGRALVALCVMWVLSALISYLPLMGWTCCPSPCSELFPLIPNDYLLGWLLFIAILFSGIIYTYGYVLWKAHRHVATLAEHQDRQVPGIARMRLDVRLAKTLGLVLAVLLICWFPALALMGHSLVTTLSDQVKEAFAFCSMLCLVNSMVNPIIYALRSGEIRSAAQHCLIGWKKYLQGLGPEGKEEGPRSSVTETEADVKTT
property-label: pKi
Reminder that pKi is minus the log10 of a molar concentration.

>  <mol>
CC1=CC[C@@H]2[C@@H](C1)c1c(ccc(C[C@H]3C[C@@H]4CC[C@]3(C)C4(C)C)c1O)OC2(C)C

>  <pKi>
7.52

$$$$

Return pKi for the following compound: CC1=CC[C@@H]2[C@@H](C1)c1c(O)cc([C@H]3C[C@@H]4CC[C@]3(C)C4(C)C)cc1OC2(C)C
8.13

Supply recorded pKi for CC1=CC[C@@H]2[C@@H](C1)c1c(O)cc([C@@H]3C[C@@H]4CC[C@]3(C)C4(C)C)cc1OC2(C)C here.
8.21

Name the recorded pKi of the item CC1=CC[C@@H]2[C@@H](C1)c1c(ccc(C[C@@H]3C[C@@H]4CC[C@]3(C)C4(C)C)c1O)OC2(C)C in your answer.
7.31

The reported measurements were obtained from ChEMBL document CHEMBL1140183.
